Origin of values: patent US20190270733A1

# method_summary: Mouse plasma PK (IV and PO dosing)
# Type: in vivo, Male C57 Bl/6J mice
# condition_parameters: male, C57 Bl/6J, mouse, plasma, iv, 1 mg/kg, IV 1 mg/kg, mouse plasma, average; read-out: MRTINF—obs
measured_metric: MRT inf
Report field: quantity (unit follows the number).

Note to self: MRT inf recorded for Nc1ccc(-c2cccs2)cc1NC(=O)c1ccc2c(c1)CCC(=O)N2 [Example 5] was 1.24 h

###

# method_summary: Mouse plasma PK (IV and PO dosing)
# Type: in vivo, Male C57 Bl/6J mice
# condition_parameters: male, C57 Bl/6J, mouse, plasma, po, 7 mg/kg, PO 7 mg/kg, mouse plasma, individual mice; read-out: T1/2 (converted)
measured_metric: half-life (h)
Please reply with the bare figure in h and do not write the unit itself.

Note to self: half-life recorded for Nc1ccc(-c2cccs2)cc1NC(=O)c1ccc2c(c1)CCC(=O)N2 was 2.05
